Target: Grb2 SH2 (UniProt P62993)
Experiment: SH2 binding enrichment of the phosphorylated peptide, bacterial display (enrichment ratio); higher = better substrate or ligand; peptides without Tyr show the background
observable: SH2 binding enrichment

construct sequence | target or test system | SH2 binding enrichment
LGPSDYFGEIV [PRKAR1A_Y323_A328V] | Grb2 SH2 (UniProt P62993) | 1.03

A: LITTLYIDFLG [KCNQ1_Y267_G269D]
B: AGQEGYDRLRP [RAC1_Y64_D63G]
stdin: So which one has the bigger SH2 binding enrichment here, A or B ? // caller expects the label of the chosen entry
stdout: A

1: SVGGCYEQLFV [MC4R_Y41_D37V]
2: LTECGYSFTTT [ACTB_Y198_R196C]
stdin: So which one has the bigger SH2 binding enrichment here, 1 or 2 ? // caller expects the label of the chosen entry
stdout: 1
(1: 0.862, 2: 0.574)

====

Each record here notes measured phosphorylation enrichment.
Tested on: Fer (mouse)
Assay: phosphorylation enrichment, bacterial display (enrichment ratio); higher = better substrate or ligand; peptides without Tyr show the background
Number only, please.

These recorded examples may help you get a feel for the data.
construct sequence | phosphorylation enrichment
PRPAGYPSTVS [CACNA1C_Y1832] | 0.331
EPVSDYINASI [PTPN11_Y304_N308S] | 0.5
PYAEPYADYGG [APBA1_Y187_S184A] | 0.861

stdin: Bench note: what phosphorylation enrichment did ECKHLYSRKEG [PTPN11_Y263_L261H] show?
stdout: 0.4

====

Target: Jak2 (UniProt O60674)
Sequence (O60674 whole entry, looked up): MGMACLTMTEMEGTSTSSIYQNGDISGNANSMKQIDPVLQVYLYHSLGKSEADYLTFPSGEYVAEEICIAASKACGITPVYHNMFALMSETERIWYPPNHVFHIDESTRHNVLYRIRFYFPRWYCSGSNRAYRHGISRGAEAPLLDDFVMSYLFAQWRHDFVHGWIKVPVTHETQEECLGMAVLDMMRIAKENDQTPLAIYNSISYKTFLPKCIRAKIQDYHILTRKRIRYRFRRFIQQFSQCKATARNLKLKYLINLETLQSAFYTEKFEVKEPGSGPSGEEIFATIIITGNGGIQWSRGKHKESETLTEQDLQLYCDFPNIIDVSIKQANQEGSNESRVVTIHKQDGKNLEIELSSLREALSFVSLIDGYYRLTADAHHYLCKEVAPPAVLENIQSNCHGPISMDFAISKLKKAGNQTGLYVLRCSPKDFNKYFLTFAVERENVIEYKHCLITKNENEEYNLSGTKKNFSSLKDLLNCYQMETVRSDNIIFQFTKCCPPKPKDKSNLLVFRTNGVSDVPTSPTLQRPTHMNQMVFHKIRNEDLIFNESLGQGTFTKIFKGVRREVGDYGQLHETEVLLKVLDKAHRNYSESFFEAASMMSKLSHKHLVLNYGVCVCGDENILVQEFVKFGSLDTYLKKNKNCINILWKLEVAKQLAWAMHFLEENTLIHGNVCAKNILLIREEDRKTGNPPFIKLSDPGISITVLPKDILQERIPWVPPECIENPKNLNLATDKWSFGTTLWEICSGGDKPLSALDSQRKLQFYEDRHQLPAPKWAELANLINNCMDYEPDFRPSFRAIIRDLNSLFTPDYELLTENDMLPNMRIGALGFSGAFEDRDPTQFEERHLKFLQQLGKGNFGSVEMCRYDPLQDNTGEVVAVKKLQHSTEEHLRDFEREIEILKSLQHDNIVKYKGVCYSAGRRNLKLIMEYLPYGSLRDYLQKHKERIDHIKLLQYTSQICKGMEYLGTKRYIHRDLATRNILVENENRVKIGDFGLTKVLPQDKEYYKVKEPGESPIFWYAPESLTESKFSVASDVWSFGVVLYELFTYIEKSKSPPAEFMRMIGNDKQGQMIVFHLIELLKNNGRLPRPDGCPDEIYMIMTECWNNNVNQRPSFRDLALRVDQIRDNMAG
Test: phosphorylation enrichment, bacterial display (enrichment ratio); higher = better substrate or ligand; peptides without Tyr show the background
observable: phosphorylation enrichment
Number only, please.

construct sequence | value observed
EGLKVYVNGTL [ADGRD1_Y183] | 1.24

stdin: Bench note: what phosphorylation enrichment did YRASYYRKGGC [ALK_Y1283] show?
stdout: 0.678

stdin: Bench note: what phosphorylation enrichment did RKNAKYLLKGE [CDH5_Y82] show?
stdout: 0.827

stdin: Bench note: what phosphorylation enrichment did QLATEYVFSDF [PANX1_Y10] show?
stdout: 1.57

stdin: Bench note: what phosphorylation enrichment did QAIDEYEKWLE [MAP9_Y603_N601D] show?
stdout: 1.46

stdin: Bench note: what phosphorylation enrichment did EMFNPYFGLFE [NEDD4L_Y679_YF] show?
stdout: 8.21

stdin: Bench note: what phosphorylation enrichment did FDSPFYRDSLP [TSC1_Y508] show?
stdout: 0.594

====

Target: MERTK (UniProt Q12866)
Sequence (Q12866 whole entry, looked up): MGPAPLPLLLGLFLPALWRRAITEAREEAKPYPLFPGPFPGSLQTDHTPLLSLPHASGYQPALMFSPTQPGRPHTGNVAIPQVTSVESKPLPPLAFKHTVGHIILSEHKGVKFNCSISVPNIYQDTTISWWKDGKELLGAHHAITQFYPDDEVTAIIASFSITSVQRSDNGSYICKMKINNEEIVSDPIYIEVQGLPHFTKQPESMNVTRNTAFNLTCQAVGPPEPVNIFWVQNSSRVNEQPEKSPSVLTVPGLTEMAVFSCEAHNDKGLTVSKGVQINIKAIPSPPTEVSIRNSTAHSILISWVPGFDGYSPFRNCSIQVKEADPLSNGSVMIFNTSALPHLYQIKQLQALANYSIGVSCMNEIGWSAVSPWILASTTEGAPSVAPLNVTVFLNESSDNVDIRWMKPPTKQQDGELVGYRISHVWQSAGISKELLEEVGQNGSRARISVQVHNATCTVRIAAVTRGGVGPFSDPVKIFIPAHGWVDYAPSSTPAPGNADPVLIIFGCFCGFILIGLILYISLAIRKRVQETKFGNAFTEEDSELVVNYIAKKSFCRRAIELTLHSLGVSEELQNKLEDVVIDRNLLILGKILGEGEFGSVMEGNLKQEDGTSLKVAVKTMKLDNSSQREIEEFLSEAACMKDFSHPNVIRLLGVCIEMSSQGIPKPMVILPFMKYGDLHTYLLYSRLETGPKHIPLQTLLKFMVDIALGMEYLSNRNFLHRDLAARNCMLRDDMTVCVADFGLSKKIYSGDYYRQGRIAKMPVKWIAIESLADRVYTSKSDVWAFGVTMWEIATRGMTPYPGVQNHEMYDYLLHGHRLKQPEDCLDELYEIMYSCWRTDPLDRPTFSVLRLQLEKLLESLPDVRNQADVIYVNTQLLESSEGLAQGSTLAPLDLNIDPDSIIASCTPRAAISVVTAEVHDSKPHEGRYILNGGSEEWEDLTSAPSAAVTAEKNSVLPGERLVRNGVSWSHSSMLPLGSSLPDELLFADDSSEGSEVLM
Assay: phosphorylation enrichment, bacterial display (enrichment ratio); higher = better substrate or ligand; peptides without Tyr show the background
observable: phosphorylation enrichment
Number only, please.

construct sequence | phosphorylation enrichment
GQLIFYAPPEW [CNTN6_Y315] | 3.46

stdin: Bench note: what phosphorylation enrichment did EFENSYIFDIN [GAB1_Y83] show?
stdout: 0.419

stdin: Bench note: what phosphorylation enrichment did QPDLLYDHIQP [TRRAP_Y862_F860L] show?
stdout: 14.4

stdin: Bench note: what phosphorylation enrichment did WASSSYRETPS [SORBS1_Y79_R74W] show?
stdout: 0.39

stdin: Bench note: what phosphorylation enrichment did LGPDGYSTVDR [ARVCF_Y901] show?
stdout: 0.553

stdin: Bench note: what phosphorylation enrichment did PVGDVYKKKGL [NMNAT1_Y55_A54V] show?
stdout: 0.491
